Assay: Distribution between mouse plasma and brain (brain penetration, ip)
Format: in vivo
Details: mouse, in vivo, 5 mg/kg, Table 2; mouse, n = 3; read-out: Average concentration in plasma
measured metric: concentration at 1 h

# input Requested field: concentration at 1 h. Item: O=C(Nc1ccc2sc(-c3ccc(F)c(F)c3)nc2c1)N1CC[C@H](F)C1
# output 2.27 µM

* * *

Test system: human lymphocytes CRL-8155
measured metric: EC90 (µM)
Give the value in µM but do not write µM after it.

# input Requested field: EC90. Item: CCN(CC)CCCC(C)Nc1c2ccc(Cl)cc2nc2ccc(OC)cc12 (stereo not shown) [quinacrine, reference compound]
# output 9.94
